biological target: α4β7 integrin on human cells (human, UniProt P13612 34-1032; P26010 20-798); assay: cell-based or functional assay
Bridge positions count the residues as written; N and C are the ends. Square brackets hold non-standard residues; d marks the D form. Ends that are not written are not given here. Phe(4-CF3) = N[C@@H](Cc1ccc(C(F)(F)F)cc1)C(=O)O; Phe(4-tBu) = CC(C)(C)c1ccc(C[C@H](N)C(=O)O)cc1; Bip = N[C@@H](Cc1ccc(-c2ccccc2)cc1)C(=O)O; 1Nal = N[C@@H](Cc1cccc2ccccc12)C(=O)O; 2Nal = N[C@@H](Cc1ccc2ccccc2c1)C(=O)O; d1Nal = N[C@H](Cc1cccc2ccccc12)C(=O)O; NMeR = CN[C@@H](CCCNC(=N)N)C(=O)O; Tic = O=C(O)[C@@H]1Cc2ccccc2CN1; β3hE = N[C@@H](CCC(=O)O)CC(=O)O; Pen = CC(C)(S)[C@H](N)C(=O)O; dNMeK = CN[C@H](CCCCN)C(=O)O; hLeu = CC(C)CC[C@H](N)C(=O)O; Dap = NC[C@H](N)C(=O)O
Answer each item with its documented α4β7 cell (Hu) IC50.

Which measured α4β7 cell (Hu) IC50 value corresponds to Ac-[Pen][NMeR]SDTL[Pen][2Nal][Tic][dK]-NH2 (disulfide 1-7 (inferred); also: homodimer via DIG) [SEQ ID NO 121] ?
> 100 nM

Another binder to look at: Ac-[Pen][NMeR]SQIQ[Pen][Phe(4-tBu)][β3hE][dK]-NH2 (disulfide 1-7 (inferred); also: homodimer via DIG) [SEQ ID NO 189]
> 10000 nM

Same question, Ac-[Pen][NMeR]SDTL[Pen]W[dE][dK] (disulfide 1-7 (inferred); not fully specified (residue 10); printed as Ac-Pen-(N-Me-R)-S-D-T-L-Pen-W-e-k-Ac) [SEQ ID NO 66] this time
> 10000 nM

Input Ac-[Pen][NMeR]SD[hLeu]L[Pen][2Nal][dE]-NH2 (disulfide 1-7 (inferred)) [SEQ ID NO 161]
> 1000 nM

Queued: Ac-[Pen][NMeR]SDTL[Pen][1Nal][dH][dK]-NH2 (disulfide 1-7 (inferred); also: homodimer via DIG) [SEQ ID NO 112]
> 50 nM

Please give the result for Ac-[Pen][NMeR]SDTL[Pen][Phe(4-tBu)][b‑H‑E][dK]-OH (disulfide 1-7 (inferred); also: homodimer via DIG) [SEQ ID NO 168] too.
≤ 10 nM

Next binder: Ac-[Pen][NMeR]SDTL[Pen][d1Nal]E[dK]-NH2 (disulfide 1-7 (inferred); also: homodimer via DIG linker) [SEQ ID NO 34]
> 25 nM

Next record, please: Ac-[Pen][NMeR]SDTL[Pen][1Nal][dE][dNMeK]-NH2 (disulfide 1-7 (inferred); also: homodimer via DIG linker) [SEQ ID NO 38]
≤ 10 nM

Another binder: Ac-[Pen][NMeR]SDLL[Pen][2Nal][dE]-NH2 (disulfide 1-7 (inferred)) [SEQ ID NO 159]
> 1000 nM

Next up: Ac-[Pen][NMeR]SDTL[Pen][dF][dE][dK]-NH2 (disulfide 1-7 (inferred); also: homodimer via DIG) [SEQ ID NO 2]
> 100 nM

Also check Ac-[Pen][NMeR]SDTL[Pen][Phe(3,4-Cl)][dE][dK]-NH2 (disulfide 1-7 (inferred); also: dimer via DIG) [SEQ ID NO 102]
> 100 nM

How about Ac-[Pen][NMeR]SDTL[Pen]WD[dK]-NH2 (disulfide 1-7 (inferred); also: homodimer linked by DIG) [SEQ ID NO 87] ?
> 25 nM

Another binder to check: Ac-[Pen][NMeR]SDTL[Pen][1Nal][Tic][dK]-NH2 (disulfide 1-7 (inferred); also: homodimer via DIG) [SEQ ID NO 115]
> 100 nM

Now consider Ac-[Pen][NMeR]SDTL[Pen]WE[Dap] (disulfide 1-7 (inferred); also: Ac written after C-terminal Dap, place unclear) [SEQ ID NO 60] and answer again.
> 1000 nM

Follow-up item: Ac-C[NMeR]SDTL[Pen]W[dK]-NH2 (disulfide 1-7 (inferred); also: homodimer via PEG25 linker) [SEQ ID NO 37]
> 100 nM

What about this binder? Ac-[Pen][NMeR]SDTL[Pen][Phe(4-CF3)][dE][dK]-NH2 (disulfide 1-7 (inferred); also: homodimer via DIG linker) [SEQ ID NO 3]
> 25 nM

Another binder to look at: Ac-[Pen][NMeR]SDTL[Pen][Bip][dE][dK]-NH2 (disulfide 1-7 (inferred); also: dimer via DIG) [SEQ ID NO 108]
> 10 nM
